- MEASURED_TARGET: HMOX1; note: reference of the scale not given here
- ASSAY_PROTOCOL: pooled miR-30 sensor sort-seq; sequence = guide strand
- MEASUREMENT_SETUP: shRNA
// Condition not met strictly below -0.7 in sensor-assay potency score (higher = more potent); Condition met otherwise

As a guide, the following entries are already answered.
I'd appreciate it if you could say whether "TTGCGGTGCAGCTCTTCTGGGA" has sensor-assay potency score (higher = more potent) at least equal to -0.7. Condition not met

I'd appreciate it if you could say whether "TCTTCTATCACCCTCTGCCTGA" has sensor-assay potency score (higher = more potent) at least equal to -0.7. Condition met

I'd appreciate it if you could say whether "TCTTCTGGGAAGTAGACAGGGG" has sensor-assay potency score (higher = more potent) at least equal to -0.7. Condition met

---
I'd appreciate it if you could say whether "TTGCACTTTGTTGCTGGCCCGC" has sensor-assay potency score (higher = more potent) at least equal to -0.7. Condition not met

I'd appreciate it if you could say whether "TTGAGCAGGAACGCAGTCTTGG" has sensor-assay potency score (higher = more potent) at least equal to -0.7. Condition met

I'd appreciate it if you could say whether "TATAAAAACAACAGAACACAAC" has sensor-assay potency score (higher = more potent) at least equal to -0.7. Condition not met

I'd appreciate it if you could say whether "TAGGGGATGACCTCCTGCCAGC" has sensor-assay potency score (higher = more potent) at least equal to -0.7. Condition not met

I'd appreciate it if you could say whether "AAACACAAGACACAACATCTTT" has sensor-assay potency score (higher = more potent) at least equal to -0.7. Condition not met
